- System: heart muscle
- assay summary: Heart muscle uptake and elimination of radiolabelled fatty acids after tail vein injection in mice
- Format: in vivo, NMRI mice
- experimental parameters: comparative tests, table 2
reported metric: Max. Enrichment in % of Injected Dose per Heart

Exercise: I am curious: what Max. Enrichment in % of Injected Dose per Heart value has been reported for O=C(O)CCCCCCCCCCCCCCCC[34Cl] [17-^34m Cl-Heptadecanoic acid] ?
Solution: 2.16 ± 0.6 % of Injected Dose per Heart

Exercise: I am curious: what Max. Enrichment in % of Injected Dose per Heart value has been reported for O=C(O)CCCCCCCCCCCCCCCC[18F] ?
Solution: 4.812 ± 0.8 % of Injected Dose per Heart

Exercise: I am curious: what Max. Enrichment in % of Injected Dose per Heart value has been reported for O=C(O)CCCCCCCCCCCCCCC[18F] ?
Solution: 4.35 ± 1.3 % of Injected Dose per Heart

Exercise: I am curious: what Max. Enrichment in % of Injected Dose per Heart value has been reported for CCCCCCCCCCCCCCCCC([18F])C(=O)O (centres unmarked) ?
Solution: 1.34 ± 0.1 % of Injected Dose per Heart

Exercise: I am curious: what Max. Enrichment in % of Injected Dose per Heart value has been reported for CCCCCCCCCCCCCCC[11C](=O)O [1-[^11 C] Palmitic acid] ?
Solution: 3.87 ± 1.0 % of Injected Dose per Heart

Hello, the source for this data is patent US4323547A, in case you need it.
